The entries below come with measured MIC values attached.
System: Pseudomonas aeruginosa KY 8519
experiment.description: Antibacterial spectrum, MIC by agar dilution method
Format: cell-based
condition.description: KY8519, agar dilution, pH 7.2, strain produces neomycinkanamycin phosphotransferase Type I and Type II, read-out: Minimum Inhibitory Concentration
property.measured: MIC

INSERT INTO assay_data (compound, result_value) VALUES
  ('CC1(O)COC(OC2C(NC(=O)C(O)CCN)CC(N)C(OC3OC(CN)CCC3N)C2O)C(O)C1N (single isomer, unassigned)', '3.12 µg/mL'),
  ('CNCC1CCC(N)C(OC2C(N)CC(NC(=O)C(O)CN)C(OC3OCC(C)(O)C(NC)C3O)C2O)O1 (racemic) [reference compound]', '6.25 µg/mL'),
  ('CNCC1CCC(N)C(OC2C(N)CC(NC(=O)C(O)CCN)C(OC3OCC(C)(O)C(NC)C3O)C2O)O1 (single isomer, unassigned) [reference compound]', '6.25 µg/mL'),
  ('CNCC1CCC(N)C(OC2C(N)CC(NC(=O)C(O)CN)C(OC3OCC(C)(O)C(N)C3O)C2O)O1 (racemic)', '6.25 µg/mL'),
  ('CNCC1CCC(N)C(OC2C(N)CC(NC(=O)C(O)CCN)C(OC3OCC(C)(O)C(N)C3O)C2O)O1 (single isomer, unassigned)', '6.25 µg/mL');

---

The following molecules have recorded MIC on Sarcina lutea ATCC 9341.
property.measured: MIC (µg/mL)

INSERT INTO measurements (molecule, result_value) VALUES
  ('CC1(O)COC(OC2C(NC(=O)C(O)CCN)CC(N)C(OC3OC(CN)CCC3N)C2O)C(O)C1N (single isomer, unassigned)', 0.78),
  ('CNCC1CCC(N)C(OC2C(N)CC(NC(=O)C(O)CCN)C(OC3OCC(C)(O)C(N)C3O)C2O)O1 (single isomer, unassigned)', 1.56),
  ('CNCC1CCC(N)C(OC2C(N)CC(NC(=O)C(O)CN)C(OC3OCC(C)(O)C(NC)C3O)C2O)O1 (racemic) [reference compound]', 0.4),
  ('CNCC1CCC(N)C(OC2C(N)CC(NC(=O)C(O)CN)C(OC3OCC(C)(O)C(N)C3O)C2O)O1 (racemic)', 1.56),
  ('CC1(O)COC(OC2C(NC(=O)C(O)CN)CC(N)C(OC3OC(CN)CCC3N)C2O)C(O)C1N (racemic)', 0.78),
  ('CNCC1CCC(N)C(OC2C(N)CC(NC(=O)C(O)CCN)C(OC3OCC(C)(O)C(NC)C3O)C2O)O1 (single isomer, unassigned) [reference compound]', 0.2);

---

System: Pseudomonas aeruginosa KY 8516
experiment.description: Antibacterial spectrum, MIC by agar dilution method
Assay type: cell-based
condition.description: KY8516, agar dilution, pH 7.2, strain produces kanamycin acetyltransferase, read-out: Minimum Inhibitory Concentration
property.measured: MIC (µg/mL)

INSERT INTO results (molecule, system_name, result_value) VALUES
  ('CNCC1CCC(N)C(OC2C(N)CC(NC(=O)C(O)CN)C(OC3OCC(C)(O)C(NC)C3O)C2O)O1 (racemic) [reference compound]', 'Pseudomonas aeruginosa KY 8516', 3.12),
  ('CC1(O)COC(OC2C(NC(=O)C(O)CN)CC(N)C(OC3OC(CN)CCC3N)C2O)C(O)C1N (racemic)', 'Pseudomonas aeruginosa KY 8516', 50),
  ('CC1(O)COC(OC2C(NC(=O)C(O)CCN)CC(N)C(OC3OC(CN)CCC3N)C2O)C(O)C1N (single isomer, unassigned)', 'Pseudomonas aeruginosa KY 8516', 25),
  ('CNCC1CCC(N)C(OC2C(N)CC(NC(=O)C(O)CCN)C(OC3OCC(C)(O)C(NC)C3O)C2O)O1 (single isomer, unassigned) [reference compound]', 'Pseudomonas aeruginosa KY 8516', 3.12);
